Where do these numbers come from? They come from paper PMC5399792.

target: influenza B polymerase (PA-PB1-PB2 heterotrimer, FluB) (Influenza B virus, UniProt Q5V8Z9;Q5V8Y6;Q5V8X3 1-726;1-752;1-770); test: fluorescence anisotropy; 1:1 stoichiometry; conditions: protein: recombinant; copies: 1;1;1; label: 3'-FAM-Ex-5; 5' hook hairpin on polymerase
pKd: −log10 of the molar value.
METRIC_NAME: pKd

INSERT INTO measurements (binder, experimental_value) VALUES
  ('AGUAGUAACA (ssRNA) [v5'' 1-10]', '> 8.00');
